measured.target: T1, RecE564 H652A (Escherichia coli K12, UniProt P15032 564-866, H652A)
T1 sequence: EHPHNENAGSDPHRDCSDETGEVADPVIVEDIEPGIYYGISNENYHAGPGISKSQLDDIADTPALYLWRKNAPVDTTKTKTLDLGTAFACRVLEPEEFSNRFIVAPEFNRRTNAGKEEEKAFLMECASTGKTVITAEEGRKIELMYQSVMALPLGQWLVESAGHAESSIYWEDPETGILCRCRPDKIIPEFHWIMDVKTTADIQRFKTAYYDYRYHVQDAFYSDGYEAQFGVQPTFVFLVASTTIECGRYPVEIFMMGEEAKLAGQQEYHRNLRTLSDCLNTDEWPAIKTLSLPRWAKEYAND
experimental.protocol: fluorescence anisotropy
recorded.metric: Kd (nM)

In [3]: df
Out[3]:
                                     binder  recorded_metric  units_symbol  observed_result
0  F25 (dsDNA) DNA 1: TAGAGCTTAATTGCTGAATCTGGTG DNA 2: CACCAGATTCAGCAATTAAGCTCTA               Kd            nM              130
